- System: Lolium rigidum
- experimental.protocol: Post-emergence herbicidal activity against LOLRI
- Type: in vivo
- measurement.setup: dosage 320 g/ha, rated about 3 weeks after treatment
Each entry below carries its recorded Post-emergence herbicidal activity against LOLRI in %.
recorded.endpoint: Post-emergence herbicidal activity against LOLRI in % (%)

>  <molecule>
CC(F)(F)C1(C(=O)NC2COC(C(=O)O)C2)CC(c2cc(F)cc(F)c2)=NO1 (stereo not shown)

>  <experimental.target>
Lolium rigidum

>  <recorded.result>
90

$$$$
>  <molecule>
CC(C)OC(=O)C1CC(NC(=O)C2(C)CC(c3cc(F)cc(F)c3)=NO2)CO1 (stereo not shown)

>  <experimental.target>
Lolium rigidum

>  <recorded.result>
100

$$$$
>  <molecule>
CCOC(=O)C1CC(NC(=O)C2(C)CC(c3cc(F)cc(F)c3)=NO2)CO1 (mixture of isomers)

>  <experimental.target>
Lolium rigidum

>  <recorded.result>
100

$$$$
>  <molecule>
C=C[C@]1(C(=O)N[C@H]2CO[C@@H](C(=O)OC)C2)CC(c2cc(F)cc(F)c2)=NO1 (single isomer, unassigned)

>  <experimental.target>
Lolium rigidum

>  <recorded.result>
100

$$$$
>  <molecule>
CC1(C(=O)NC2COC(C(=O)OCc3ccccc3)C2)CC(c2cc(F)cc(F)c2)=NO1 (mixture of isomers)

>  <experimental.target>
Lolium rigidum

>  <recorded.result>
100

$$$$
>  <molecule>
C=CC1(C(=O)NC2COC(C(=O)OCc3cccc(F)c3)C2)CC(c2cc(F)cc(F)c2)=NO1 (mixture of isomers)

>  <experimental.target>
Lolium rigidum

>  <recorded.result>
90

$$$$
>  <molecule>
C=CC1(C(=O)NC2COC(C(=O)OCc3ccc(OC)cc3)C2)CC(c2cc(F)cc(F)c2)=NO1 (mixture of isomers)

>  <experimental.target>
Lolium rigidum

>  <recorded.result>
90

$$$$
>  <molecule>
CC(C)OC(=O)C1CC(NC(=O)C2(C(C)(F)F)CC(c3cc(F)cc(F)c3)=NO2)CO1 (stereo not shown)

>  <experimental.target>
Lolium rigidum

>  <recorded.result>
90

$$$$
>  <molecule>
CC1(C(=O)NC2COC(C(=O)O)C2)CC(c2cc(F)cc(F)c2)=NO1 (mixture of isomers)

>  <experimental.target>
Lolium rigidum

>  <recorded.result>
100

$$$$
>  <molecule>
CC(C)(C)OC(=O)C1CC(NC(=O)C2(C)CC(c3cc(F)cc(F)c3)=NO2)CO1 (mixture of isomers)

>  <experimental.target>
Lolium rigidum

>  <recorded.result>
100

$$$$
>  <molecule>
COC(=O)C1CC(NC(=O)C2(C)CC(c3cc(F)cc(F)c3)=NO2)CO1 (mixture of isomers)

>  <experimental.target>
Lolium rigidum

>  <recorded.result>
90

$$$$
>  <molecule>
CC1(C(=O)NC2COC(C(=O)OCc3cccc(F)c3)C2)CC(c2cc(F)cc(F)c2)=NO1 (mixture of isomers)

>  <experimental.target>
Lolium rigidum

>  <recorded.result>
90

$$$$
>  <molecule>
COC(=O)C1CC(NC(=O)C2(C(C)(F)F)CC(c3cc(F)cc(F)c3)=NO2)CO1 (stereo not shown)

>  <experimental.target>
Lolium rigidum

>  <recorded.result>
90

$$$$

* * *

- System: Avena fatua
- experimental.protocol: Post-emergence herbicidal activity against AVEFA
- Format: in vivo
- measurement.setup: Avena fatua, 504 h, dosage 320 g/ha, rated about 3 weeks after treatment

>  <molecule>
COC(=O)[C@H]1C[C@@H](NC(=O)[C@@]2(C)CC(c3cc(F)cc(F)c3)=NO2)CO1 (mixture of isomers) [I-09]

>  <pest or weed control at 320 g/ha>
90%

$$$$
>  <molecule>
CC(C)(C)OC(=O)[C@H]1C[C@@H](NC(=O)C2(C)CC(c3cccc(F)c3)=NO2)CO1 (mixture of isomers) [I-33]

>  <pest or weed control at 320 g/ha>
100%

$$$$
>  <molecule>
C=C[C@]1(C(=O)N[C@H]2CO[C@@H](C(=O)OC)C2)CC(c2cc(F)cc(F)c2)=NO1 (mixture of isomers) [I-10]

>  <pest or weed control at 320 g/ha>
100%

$$$$
>  <molecule>
COC(=O)[C@H]1C[C@@H](NC(=O)C2(OC)CC(c3cc(F)cc(F)c3)=NO2)CO1 (relative stereo) [I-05]

>  <pest or weed control at 320 g/ha>
100%

$$$$
>  <molecule>
COC(=O)C1COCC1NC(=O)[C@@]1(C)CC(c2cc(F)cc(F)c2)=NO1 (stereo partly drawn) [I-28]

>  <pest or weed control at 320 g/ha>
100%

$$$$
>  <molecule>
COC(=O)C1=C(NC(=O)C2(C)CC(c3cc(F)cc(F)c3)=NO2)COC1 (stereo not drawn) [I-25]

>  <pest or weed control at 320 g/ha>
100%

$$$$

* * *

- Tested on: Echinochloa crus-galli
- experimental.protocol: Post-emergence herbicidal activity against ECHCG
- Assay type: in vivo
- measurement.setup: Echinochloa crus-galli, 504 h, dosage 320 g/ha, rated about 3 weeks after treatment
recorded.endpoint: pest or weed control at 320 g/ha (%)

>  <compound>
COC(=O)[C@H]1C[C@@H](NC(=O)C2(C)CC(c3cccc(F)c3)=NO2)CO1 (relative stereo)

>  <experimental.target>
Echinochloa crus-galli

>  <recorded.endpoint>
pest or weed control at 320 g/ha

>  <units.text>
%

>  <recorded.result>
80

$$$$
>  <compound>
CC1(C(=O)N[C@H]2CO[C@@H](C(=O)O)C2)CC(c2cccc(F)c2)=NO1 (relative stereo)

>  <experimental.target>
Echinochloa crus-galli

>  <recorded.endpoint>
pest or weed control at 320 g/ha

>  <units.text>
%

>  <recorded.result>
80

$$$$
>  <compound>
CC(C)OC(=O)[C@H]1C[C@@H](NC(=O)C2(C)CC(c3cccc(F)c3)=NO2)CO1 (mixture of isomers)

>  <experimental.target>
Echinochloa crus-galli

>  <recorded.endpoint>
pest or weed control at 320 g/ha

>  <units.text>
%

>  <recorded.result>
90

$$$$
>  <compound>
C=C[C@]1(C(=O)N[C@H]2CO[C@@H](C(=O)OC)C2)CC(c2cc(F)cc(F)c2)=NO1 (single isomer, unassigned) [I-11]

>  <experimental.target>
Echinochloa crus-galli

>  <recorded.endpoint>
pest or weed control at 320 g/ha

>  <units.text>
%

>  <recorded.result>
90

$$$$
>  <compound>
COC(=O)[C@H]1C[C@@H](NC(=O)C2(OC)CC(c3cc(F)cc(F)c3)=NO2)CO1 (relative stereo)

>  <experimental.target>
Echinochloa crus-galli

>  <recorded.endpoint>
pest or weed control at 320 g/ha

>  <units.text>
%

>  <recorded.result>
90

$$$$
>  <compound>
COC(=O)C1=C[C@H](NC(=O)C2(C)CC(c3cccc(F)c3)=NO2)CO1 (some centres unmarked)

>  <experimental.target>
Echinochloa crus-galli

>  <recorded.endpoint>
pest or weed control at 320 g/ha

>  <units.text>
%

>  <recorded.result>
100

$$$$
>  <compound>
C=C[C@]1(C(=O)N[C@H]2CO[C@@H](C(=O)OCC)C2)CC(c2cc(F)cc(F)c2)=NO1 (mixture of isomers)

>  <experimental.target>
Echinochloa crus-galli

>  <recorded.endpoint>
pest or weed control at 320 g/ha

>  <units.text>
%

>  <recorded.result>
100

$$$$
>  <compound>
C=C[C@]1(C(=O)N[C@H]2CO[C@@H](C(=O)OC)C2)CC(c2cc(F)cc(F)c2)=NO1 (mixture of isomers) [I-10]

>  <experimental.target>
Echinochloa crus-galli

>  <recorded.endpoint>
pest or weed control at 320 g/ha

>  <units.text>
%

>  <recorded.result>
100

$$$$
>  <compound>
COC(=O)[C@H]1C[C@@H](NC(=O)C2(OC)CC(c3cc(C)cc(Br)c3)=NO2)CO1 (relative stereo)

>  <experimental.target>
Echinochloa crus-galli

>  <recorded.endpoint>
pest or weed control at 320 g/ha

>  <units.text>
%

>  <recorded.result>
90

$$$$
>  <compound>
COC(=O)C1COCC1NC(=O)C1(C)CC(c2cc(F)cc(F)c2)=NO1 (centres unmarked)

>  <experimental.target>
Echinochloa crus-galli

>  <recorded.endpoint>
pest or weed control at 320 g/ha

>  <units.text>
%

>  <recorded.result>
90

$$$$
>  <compound>
C=C[C@]1(C(=O)N[C@H]2CO[C@@H](C(=O)OC(C)(C)C)C2)CC(c2cc(F)cc(F)c2)=NO1 (mixture of isomers)

>  <experimental.target>
Echinochloa crus-galli

>  <recorded.endpoint>
pest or weed control at 320 g/ha

>  <units.text>
%

>  <recorded.result>
90

$$$$
>  <compound>
C=CC1(C(=O)N[C@H]2CO[C@@H](C(=O)O)C2)CC(c2cc(F)cc(F)c2)=NO1 (relative stereo)

>  <experimental.target>
Echinochloa crus-galli

>  <recorded.endpoint>
pest or weed control at 320 g/ha

>  <units.text>
%

>  <recorded.result>
80

$$$$
>  <compound>
C=C[C@]1(C(=O)N[C@@H]2CO[C@@H](C(=O)OC)C2)CC(c2cc(F)cc(F)c2)=NO1 (mixture of isomers)

>  <experimental.target>
Echinochloa crus-galli

>  <recorded.endpoint>
pest or weed control at 320 g/ha

>  <units.text>
%

>  <recorded.result>
90

$$$$
>  <compound>
C=C[C@]1(C(=O)N[C@H]2CO[C@@H](C(=O)OCc3ccccc3)C2)CC(c2cc(F)cc(F)c2)=NO1 (mixture of isomers)

>  <experimental.target>
Echinochloa crus-galli

>  <recorded.endpoint>
pest or weed control at 320 g/ha

>  <units.text>
%

>  <recorded.result>
90

$$$$

Origin of the recorded values: patent US11597724B2
